# tgt: UniProt:Q9UHL4
# assay remarks: Inhibition of human recombinant His-tagged DPP2 expressed in insect cells
measured attribute: IC50

Could you tell me which IC50 is on file for N#C[C@@H]1CCCN1C(=O)[C@@H]1C[C@@H](CC(=O)Nc2ccccc2)C(=O)N1 ?
> 100 µM

Could you tell me which IC50 is on file for N[C@@H](CCNCc1ccccc1Cl)C(=O)N1CCCCC1 ?
0.005 µM

Could you tell me which IC50 is on file for N#C[C@@H]1CCCN1C(=O)[C@@H](N)CC(=O)N1CCN(C(c2ccc(F)cc2)c2ccc(F)cc2)CC1 ?
> 100 µM

Could you tell me which IC50 is on file for N#C[C@@H]1CCCN1C(=O)[C@@H]1C[C@@H](CC(=O)N2Cc3ccccc3C2)C(=O)N1 ?
> 100 µM

---

Kindly state half-life for each of the entries shown.
# assay remarks: Half life in BALB/c mouse at 2 mg/kg, iv
# Assay type: ADME, organism-based
# Set-up: dose 2 mg/kg, route intravenous
# applied conditions: in vivo
The figure you give is taken to be in h; do not add the unit.

Could you tell me which half-life is on file for N#C[C@@H]1CC(F)(F)CN1C(=O)[C@@H]1C[C@@H](CC(=O)N2Cc3ccccc3C2)C(=O)N1 ?
0.8

Could you tell me which half-life is on file for N#C[C@@H]1C[C@H](F)CN1C(=O)[C@@H]1C[C@@H](CC(=O)N2Cc3ccc(Cl)cc3C2)C(=O)N1 ?
13.3

Could you tell me which half-life is on file for N#C[C@@H]1C[C@H](F)CN1C(=O)[C@@H]1C[C@@H](CC(=O)N2Cc3ccccc3C2)C(=O)N1 ?
2

---

# tgt: Dipeptidyl peptidase 9 (Homo sapiens)
# Sequence (Q86TI2 whole entry): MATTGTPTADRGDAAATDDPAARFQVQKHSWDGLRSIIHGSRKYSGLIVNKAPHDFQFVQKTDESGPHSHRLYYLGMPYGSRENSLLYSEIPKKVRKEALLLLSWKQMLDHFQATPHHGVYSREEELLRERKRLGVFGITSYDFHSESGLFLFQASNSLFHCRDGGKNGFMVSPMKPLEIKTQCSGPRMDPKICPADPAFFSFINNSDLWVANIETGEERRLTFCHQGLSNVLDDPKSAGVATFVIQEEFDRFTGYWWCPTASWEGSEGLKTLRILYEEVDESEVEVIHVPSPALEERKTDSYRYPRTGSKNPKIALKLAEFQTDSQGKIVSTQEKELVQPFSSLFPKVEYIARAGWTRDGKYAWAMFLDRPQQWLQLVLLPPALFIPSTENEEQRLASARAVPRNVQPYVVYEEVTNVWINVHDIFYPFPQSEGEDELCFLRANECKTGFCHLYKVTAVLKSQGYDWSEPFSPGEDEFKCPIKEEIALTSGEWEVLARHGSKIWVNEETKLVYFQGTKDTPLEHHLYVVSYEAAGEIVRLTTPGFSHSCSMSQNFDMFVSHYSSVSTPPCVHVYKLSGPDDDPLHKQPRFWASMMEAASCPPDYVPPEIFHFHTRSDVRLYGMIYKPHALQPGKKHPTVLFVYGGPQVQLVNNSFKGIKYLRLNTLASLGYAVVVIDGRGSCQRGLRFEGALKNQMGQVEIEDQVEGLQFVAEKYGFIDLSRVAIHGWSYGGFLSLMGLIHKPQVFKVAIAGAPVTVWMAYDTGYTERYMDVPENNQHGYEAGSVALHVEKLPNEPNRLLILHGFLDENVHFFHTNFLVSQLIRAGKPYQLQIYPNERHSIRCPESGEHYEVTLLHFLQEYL
# assay remarks: Inhibition of human recombinant His-tagged DPP9 expressed in insect cells
pIC50: −log10 of the molar value.
measured attribute: pIC50

Hi! What's the reported pIC50 for N#C[C@@H]1CCCN1C(=O)[C@@H]1C[C@@H](CC(=O)N2CCN(c3ccc(F)cc3)CC2)C(=O)N1 on Dipeptidyl peptidase 9 (Homo sapiens)?
< 4.00

Hi! What's the reported pIC50 for O=C1N[C@H](C(=O)N2CCSC2)C[C@H]1CC(=O)N1Cc2ccccc2C1 on Dipeptidyl peptidase 9 (Homo sapiens)?
< 4.00

Hi! What's the reported pIC50 for O=C1N[C@H](C(=O)N2CCCC2)C[C@H]1CC(=O)N1Cc2ccccc2C1 on Dipeptidyl peptidase 9 (Homo sapiens)?
< 4.00

Hi! What's the reported pIC50 for N#C[C@@H]1CCCN1C(=O)[C@@H]1C[C@@H](CC(=O)Nc2ccccc2)C(=O)N1 on Dipeptidyl peptidase 9 (Homo sapiens)?
< 4.00

Hi! What's the reported pIC50 for N#C[C@@H]1CCCN1C(=O)[C@@H]1C[C@@H](CC(=O)N2Cc3ccc(F)cc3C2)C(=O)N1 on Dipeptidyl peptidase 9 (Homo sapiens)?
< 4.00

Hi! What's the reported pIC50 for N#C[C@@H]1CCCN1C(=O)[C@@H]1C[C@@H](CC(=O)N2CCc3ccsc3C2)C(=O)N1 on Dipeptidyl peptidase 9 (Homo sapiens)?
< 4.70

Hi! What's the reported pIC50 for N#C[C@@H]1CCCN1C(=O)[C@@H]1C[C@@H](CC(=O)N2CCn3c(nnc3C(F)(F)F)C2)C(=O)N1 on Dipeptidyl peptidase 9 (Homo sapiens)?
< 4.70

Hi! What's the reported pIC50 for N#C[C@@H]1CC(F)(F)CN1C(=O)[C@@H]1C[C@@H](CC(=O)N2Cc3ccccc3C2)C(=O)N1 on Dipeptidyl peptidase 9 (Homo sapiens)?
< 4.00

Hi! What's the reported pIC50 for N[C@@H](CCNCc1ccccc1Cl)C(=O)N1CCCCC1 on Dipeptidyl peptidase 9 (Homo sapiens)?
< 4.00

Hi! What's the reported pIC50 for N#C[C@@H]1CCCN1C(=O)[C@@H]1C[C@@H](CC(=O)N2Cc3ccc(C(F)(F)F)cc3C2)C(=O)N1 on Dipeptidyl peptidase 9 (Homo sapiens)?
< 4.30

Hi! What's the reported pIC50 for N#C[C@@H]1C[C@H](F)CN1C(=O)[C@@H]1C[C@@H](CC(=O)N2Cc3ccccc3C2)C(=O)N1 on Dipeptidyl peptidase 9 (Homo sapiens)?
< 4.30

Hi! What's the reported pIC50 for CC(C)(C)NC(=O)[C@@H]1CCCN1C(=O)[C@@H]1C[C@@H](CC(=O)N2Cc3ccccc3C2)C(=O)N1 on Dipeptidyl peptidase 9 (Homo sapiens)?
< 4.00

Hi! What's the reported pIC50 for N#C[C@@H]1CCCN1C(=O)[C@@H]1C[C@@H](CC(=O)N2Cc3ccc(Cl)cc3C2)C(=O)N1 on Dipeptidyl peptidase 9 (Homo sapiens)?
< 4.30

Hi! What's the reported pIC50 for N#C[C@@H]1CCCN1C(=O)[C@@H]1C[C@H](CC(=O)N2Cc3ccccc3C2)C(=O)N1 on Dipeptidyl peptidase 9 (Homo sapiens)?
< 4.00

Hi! What's the reported pIC50 for N#C[C@@H]1CCCN1C(=O)CNC(=O)c1cccc2ccccc12 on Dipeptidyl peptidase 9 (Homo sapiens)?
< 4.00

Hi! What's the reported pIC50 for N#C[C@@H]1CCCN1C(=O)[C@@H]1C[C@@H](CC(=O)N2CCn3cc(C(F)(F)F)nc3C2)C(=O)N1 on Dipeptidyl peptidase 9 (Homo sapiens)?
< 4.70

---

Kindly state IC50 for each of the entries shown.
# tgt: Dipeptidyl peptidase 4 (Homo sapiens)
# Sequence (P27487 whole entry): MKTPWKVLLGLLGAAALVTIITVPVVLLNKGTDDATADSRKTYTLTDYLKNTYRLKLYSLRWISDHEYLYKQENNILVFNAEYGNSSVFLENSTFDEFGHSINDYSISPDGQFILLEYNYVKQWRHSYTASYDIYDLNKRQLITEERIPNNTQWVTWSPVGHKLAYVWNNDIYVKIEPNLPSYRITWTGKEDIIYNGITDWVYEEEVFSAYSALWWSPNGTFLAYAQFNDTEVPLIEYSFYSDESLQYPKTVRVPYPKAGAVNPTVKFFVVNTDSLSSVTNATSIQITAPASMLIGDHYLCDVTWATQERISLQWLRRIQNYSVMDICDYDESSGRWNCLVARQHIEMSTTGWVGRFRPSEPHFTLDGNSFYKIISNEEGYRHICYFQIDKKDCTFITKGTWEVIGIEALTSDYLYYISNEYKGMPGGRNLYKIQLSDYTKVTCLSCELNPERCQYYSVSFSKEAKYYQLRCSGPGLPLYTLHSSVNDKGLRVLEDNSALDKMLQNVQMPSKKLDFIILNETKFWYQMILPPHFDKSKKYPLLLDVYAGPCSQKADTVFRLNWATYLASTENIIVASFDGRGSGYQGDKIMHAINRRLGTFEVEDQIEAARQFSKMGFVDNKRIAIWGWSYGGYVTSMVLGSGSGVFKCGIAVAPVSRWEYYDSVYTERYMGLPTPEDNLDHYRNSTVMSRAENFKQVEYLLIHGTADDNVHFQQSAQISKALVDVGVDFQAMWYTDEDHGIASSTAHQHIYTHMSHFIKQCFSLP
# assay remarks: Inhibition of human recombinant His-tagged DPP4 expressed in insect cells

Could you tell me which IC50 is on file for N#C[C@@H]1CCCN1C(=O)[C@@H]1C[C@@H](CC(=O)N2CCN(c3ccncc3)CC2)C(=O)N1 ?
> 100 µM

Could you tell me which IC50 is on file for N#C[C@@H]1CCCN1C(=O)[C@@H]1CC(CC(=O)N2Cc3ccccc3C2)C(=O)N1 (some centres undefined) ?
> 100 µM

Could you tell me which IC50 is on file for O=C1N[C@H](C(=O)N2CCSC2)C[C@H]1CC(=O)N1Cc2ccccc2C1 ?
> 100 µM

Could you tell me which IC50 is on file for N#C[C@@H]1CCCN1C(=O)[C@@H]1C[C@@H](CC(=O)N2Cc3ccc(Cl)cc3C2)C(=O)N1 ?
> 100 µM

Could you tell me which IC50 is on file for N#C[C@@H]1CCCN1C(=O)[C@@H]1C[C@@H](CC(=O)N2CCc3ccccc3C2)C(=O)N1 ?
> 100 µM

Could you tell me which IC50 is on file for N#C[C@@H]1CCCN1C(=O)[C@@H]1C[C@@H](CC(=O)N2Cc3ccccc3C2)C(=O)N1 ?
> 100 µM

Could you tell me which IC50 is on file for N[C@@H](CCNCc1ccccc1Cl)C(=O)N1CCCCC1 ?
> 100 µM

Could you tell me which IC50 is on file for N#C[C@@H]1CCCN1C(=O)[C@@H]1C[C@@H](CC(=O)N2CCn3c(nnc3C(F)(F)F)C2)C(=O)N1 ?
> 100 µM

Could you tell me which IC50 is on file for N#C[C@@H]1CCCN1C(=O)[C@@H]1C[C@@H](CC(=O)N2CCCCC2)C(=O)N1 ?
> 100 µM
